experiment.summary: basal 3T3-L1 adipocyte mitochondrial potential changes, profiling panel, cell-based, JC-1 fluorescence, 3T3-L1 adipocytes, 24 h, 100 nL compound (AID 1168); further: test concentration not given here
condition.context: JC-1 mitochondrial fluorescence, higher = more signal, called active from +8 up or from −8 down
Decision: z-score compared against 0.08; not below it gives rule met, below it gives rule not met.

* CC1C2C(CCCO)=CC(C3C(=O)N(C)C(=O)C23)N1Cc1cccc(OC(F)(F)F)c1 (configuration not stated) | rule not met
* CO[C@H]1O[C@H](CO)[C@@H](OC(=O)CCc2ccccc2)[C@@H]2OC(=O)[C@@H](Cc3ccc4ccccc4c3)C/C=C/C[C@H](Cc3ccc4ccccc4c3)C(=O)O[C@@H]12 | rule met
* COc1c(C)cc(-c2nc(-c3ccccc3)c3c(c2C)CO[Si]3(C(C)C)C(C)C)cc1C | rule not met
* CCOC(=O)C1=CC[C@@H](c2ccccc2)N(S(=O)(=O)c2ccc(C)cc2)[C@@H]1C#N | rule met
* COc1cc(Cc2cc3c(c(CCc4ccccc4)n2)[Si](C(C)C)(C(C)C)O[C@H]3c2ccccc2)cc(OC)c1OC | rule not met
* COC(=O)C[C@H]1O[C@]2(C(=O)N(C)c3ccccc32)[C@@H](C)[C@@H]1[Si](C)(C)c1ccccc1 | rule met
* C=CCC(OC(C)=O)[C@@H]1[C@@H](N(Cc2ccc(-c3ccccc3)cc2)C(=O)Cc2ccc(OC)cc2)c2cc(OCCCO)ccc2N1C(=O)Cc1ccc(OC)cc1 (some centres not stated) | rule not met
